Target: porcine Aminopeptidase N (APN) (Sus scrofa, UniProt P15145)
Construct: aminopeptidase from porcine kidney (pAPN, Sigma Aldrich); purchased Sigma Aldrich; host or cells: porcine kidney (microsomal preparation)
Sequence (P15145 whole entry): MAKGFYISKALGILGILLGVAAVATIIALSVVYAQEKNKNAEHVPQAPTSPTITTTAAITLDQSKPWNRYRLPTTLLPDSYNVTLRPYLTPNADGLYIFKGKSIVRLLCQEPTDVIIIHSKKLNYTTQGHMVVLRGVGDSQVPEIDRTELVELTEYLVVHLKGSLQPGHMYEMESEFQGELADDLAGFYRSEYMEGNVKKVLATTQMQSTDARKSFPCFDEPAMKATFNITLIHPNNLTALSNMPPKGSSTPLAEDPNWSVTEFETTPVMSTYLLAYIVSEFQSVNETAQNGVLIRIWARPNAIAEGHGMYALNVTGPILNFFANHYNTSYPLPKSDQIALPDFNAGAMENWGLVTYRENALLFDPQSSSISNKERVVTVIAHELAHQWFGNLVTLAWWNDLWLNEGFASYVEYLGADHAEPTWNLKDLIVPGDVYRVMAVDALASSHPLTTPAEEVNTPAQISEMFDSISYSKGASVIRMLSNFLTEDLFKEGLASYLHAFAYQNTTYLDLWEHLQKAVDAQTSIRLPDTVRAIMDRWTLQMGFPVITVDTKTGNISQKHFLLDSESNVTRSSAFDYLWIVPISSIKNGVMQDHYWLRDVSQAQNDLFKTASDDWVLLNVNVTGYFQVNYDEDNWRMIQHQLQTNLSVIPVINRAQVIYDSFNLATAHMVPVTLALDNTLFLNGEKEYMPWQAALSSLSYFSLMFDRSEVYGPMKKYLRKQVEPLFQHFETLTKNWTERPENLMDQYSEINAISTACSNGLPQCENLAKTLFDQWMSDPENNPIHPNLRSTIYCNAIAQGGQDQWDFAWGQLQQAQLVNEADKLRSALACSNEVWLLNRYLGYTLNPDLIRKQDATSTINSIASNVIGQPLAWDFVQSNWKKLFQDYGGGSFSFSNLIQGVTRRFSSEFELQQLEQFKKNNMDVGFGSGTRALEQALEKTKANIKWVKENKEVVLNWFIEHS
Assay: porcine Aminopeptidase N inhibition, spectrophotometric
Format: biochemical
Details: read-out: IC50
MEASURED PARAMETER: pIC50
Numbers only, as −log10 of the molar value.

For porcine Aminopeptidase N (APN) (Sus scrofa, UniProt P15145), give the measured pIC50 of the entry N=C(N)NCCC[C@@H]1NC2(CNC(=O)[C@H](CC(N)=O)NC(=O)[C@@H](N)CSSC[C@@H](C(=O)O)NC1=O)COC2 [Compound 22, Cyclo(H-Cys-Asn-GOx-Arg-Cys-OH)]
3.76
